Entry source: patent US6737383B1

Tested on: morningglory
Assay: Test B pre/postemergence morningglory
Type: in vivo, Ipomoea hederacea
Conditions: Preemergence, Rate 500 g/ha; scale of 0 to 10 where 0 is no effect and 10 is complete control
Protocol: […] At the same time, these crop and weed species were also treated with postemergence applications of test chemicals formulated in the same manner. […] Treated plants and controls were maintained in a greenhouse for twelve to sixteen days, after which all species were compared to controls and visually evaluated. […]
measured property: Plant response rating, Morningglory
Answer using only a numeral; do not append any unit.

I have this molecule here, C=C(Cn1c(=O)on(C(=O)N(c2ccccc2)C(C)C)c1=O)C(C)(C)C [Compound 648] , and I need its recorded Plant response rating, Morningglory.
0

Query: Plant response rating, Morningglory; subject: CC(C)N(C(=O)n1oc(=O)n(CNC(=O)c2ccccc2)c1=O)c1ccc(F)cc1F [Compound 619]
0

# Plant response rating, Morningglory lookup, item Cc1ccccc1-n1c(=O)on(C(=O)N(c2cccc(F)c2)C(C)C)c1=O [Compound 269]
0

Given the molecule COCCOCn1c(=O)on(C(=O)N(c2ccc(F)cc2)C(C)C)c1=O [Compound 258] , what is its reported Plant response rating, Morningglory?
0

Which measured Plant response rating, Morningglory value corresponds to CC(C)N(C(=O)n1oc(=O)n(C2CCCC2)c1=O)c1ccc(Cl)cc1 [Compound 282] ?
0

Could you tell me which Plant response rating, Morningglory is on file for CC(C)N(C(=O)n1oc(=O)n(CC(=O)C2CCC2)c1=O)c1ccc(Cl)cc1 [Compound 643] ?
0
